Assay: yeast display, Sf9 membrane polyspecificity reagent, FACS + sequencing; frameworks hold sequencing errors
observable: polyreactivity (PSR sort gate)

Examples from the recorded data:
QVQLVESGGGLVQAGGRLRLSCAASGSNFGLNALGWYRQAPGKERELVAAINSDADTYYADSVKGRFTISRDNAKNTVYLQMNSQKPADTAVYYCAADYYWDPFDSNFGHVPQEYESWGQGTQVTVSS : low polyreactivity
QVQLVESGGCLVQAGGSLRLSCAASGFIFSRNAIGWYRQAHGKERELVAAISLRGGSTYYADSVKGRFTISRDYAKNTVYLQMNSLKPEDTAVYYCAAPLFSGYDYWVQGTQVTVSS : low polyreactivity
QVQLVESGGGLVQAGGSLRLSCAASGIIINTYLMGWYRQAPGKERELVAAISRRGGSTYYADSVKGRFTISRDNAKITVYLQMNSLKPEDTAFYYCAADVLYQQAGTYYWGQGTQVNVSS : high polyreactivity
QVQLVESGGGLVQAGGSLRLSCAASGIIFTYYAMGWYRQAPGKERELVAAITSSAGSTYYADSVKGRFTISRDNAKNTVYLQMNSLKPVDTAVYYCAAYSVYYYQGDDYWGQGTQVTVSS : high polyreactivity
QDQLVESGGGLVQAGGSLRLSCAASVSIFASYAMGRYRPAPGKERELVAAISSRGSRTYYADSVKGRFTISRDNAKNTVYLQMNRLKPQDTAVYYCAAYSPDYYNAEFGYWGQGTHVTVSS : high polyreactivity
QVQLVESGGGLVQAGGSLRLSCAASGRIFESYAMGWYRQAPGKERELVAAISSGGGTTYYADSVKGRFTISRDNAKNTVYLQMNSLKPEDTAVYYCAAGPWFYYWGQGTQVTVSS : low polyreactivity

Request: Reported polyreactivity (PSR sort gate), sequence "QVQLVESGGGLVQAGGSLRLSCAASGSIFVYNAMGWYRQAPGKERELVAGITFIGGSTYYADSVKGRFTISRDNPKNTVYLQMNSLKPEDTAVYYCNADVAPGIFYGYDSWGQGTQVTVSS" : ____
Result: low polyreactivity

Request: Reported polyreactivity (PSR sort gate), sequence "QVQLVESGGGLVQAGGSLRLSCPASGRTFYRNAMGWYRQAPGKEREFVAVITWSTGTTYYADSVKGRFTISRDNAKNTVYLQMNSPKPEDTAVYYCAADSQPPHELYESIEHESWGQGTQVTVSS" : ____
Result: low polyreactivity
